# tested_system: immunoproteasome LMP7/B5i subunit (Homo sapiens)
# experiment_summary: Caliper-based proteasome enzymatic activity assay, LMP7
# conditions: human recombinant immunoproteasome 0.3 nM, FAM peptide substrate 1 μM, rt 3 h
reported_metric: IC50 (nM)

Some compounds with recorded IC50:
{"structure_notation": "CN(C)C(=O)C(C#N)=Cc1cccc(OCCC(=O)N[C@@H](Cc2ccccc2)B(O)O)c1F", "IC50 / nM": 16.8}
{"structure_notation": "N#CC(=Cc1cccc(CCNC(=O)N[C@@H](Cc2ccccc2)B(O)O)c1)c1ccc(C(F)(F)F)cn1", "IC50 / nM": 66.4}

[P] Cc1ccc(C[C@H](NC(=O)NCCc2cccc(C=C(C#N)c3ccccn3)c2)B(O)O)cc1
[Q] N#CC(=Cc1ccc2c(c1)CN(CC(=O)N[C@@H](Cc1ccccc1)B(O)O)CC2)c1ccccn1
Q. Which of these two has the smaller recorded IC50: P or Q ? State your choice using its label.
A. Q

[a] CCN(C(=O)C(C#N)=Cc1cccc(CCNC(=O)N[C@@H](Cc2coc3ccccc23)B(O)O)c1)C1CCOCC1
[b] Cc1ccc(C[C@H](NC(=O)OCCc2cccc(C=C(C#N)C(=O)N3C4CCC3COC4)c2)B(O)O)cc1
[c] CN(CC(F)(F)F)C(=O)C(C#N)=Cc1cccc(CCOC(=O)N[C@@H](Cc2ccccc2)B(O)O)c1
Q. Endpoint returns the given compounds ordered by ascending IC50. Answer by writing out the labels in the requested order.
A. b, c, a
(b: 0.5 nM, c: 2.3 nM, a: 5.2 nM)

[a] N#CC(=Cc1cccc(CCOC(=O)N[C@@H](Cc2ccccc2)B(O)O)c1)c1ccncn1
[b] COc1cccnc1C(C#N)=Cc1cccc(OCCC(=O)N[C@@H](Cc2ccccc2)B(O)O)c1
[c] CC(C)(C)NC(=O)C(C#N)=Cc1cccc(OCCC(=O)N[C@@H](CCc2ccccc2)B(O)O)c1
Q. Endpoint returns the given compounds ordered by ascending IC50. Answer by writing out the labels in the requested order.
A. a, c, b
(a: 0.9 nM, c: 2 nM, b: 20.2 nM)

[a] CCN(CC)C(=O)C(C#N)=Cc1cccc(CCOC(=O)N[C@@H](Cc2ccc(Cl)cc2)B(O)O)c1
[b] N#CC(=Cc1cccc(CCNC(=O)N[C@@H](Cc2ccccc2)B(O)O)c1)c1ccccn1
Q. Which of these two has the smaller recorded IC50: a or b ? State your choice using its label.
A. a
(a: 0.9 nM, b: 186 nM)
